Recorded values, source patent US20200255503A1.

# tgt: T1, Fel d1 (B-A)-mmH (cat (Felis domesticus))
# T1 construct: Expressed in CHO cells; also called rFel d1.mmH; rFel d1-mmH
# test-name: SPR, mAb captured, Fel d1 (B-A)-mmH injected, 25 C;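 also: rate constants obtained by fitting sensorgrams to a one-to-one binding model, Kd computed as koff over kon, half-life derived from koff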
attribute-measured: koff (s⁻¹)
Kindly answer with a numeric value in s⁻¹, unit omitted.

Known results for binders:
binder | koff / s⁻¹
H1M1241N (antibody, V domains shown, chimeric, human variable domains with mouse Fc (prefix H1M)) VH: EVQLVESGGGLVKPGGSLRLSCAASGFTFSSYSMNWVRQAPGKGLEWVSSISSRSSYIYYADSVKGRFTISRDNAKNSLYLQMNSLRAEDTAVYYCARDHIVVVPGASYYYYGMDVWGQGTTVTVSS VL: DIQMTQSPSSLSASVGDRVTITCRASQGIRNDLGWYQQKPGKAPKRLISAASSLQSGVPSRFSGSGSGTEFTLTISSLQPEDFATYYCLQHNSYPLTFGGGTKVEIK | 0.000112
H4H2645P (antibody, human IgG4, V domains shown, human IgG4 Fc (prefix H4H)) VH: EVQLVESGGGLVQPGGSLRLSCAASGFTFSTYAMHWVRQAPGKGLEWVSSISGRGRNSDHADSVKGRFTISRDNSKNTLYLQMNSLRAEDTAVYYCARTEYFHHWGQGTLVTVSS VL: DIQMTQSPSSLSASVGDRITITCRASQDINNYLAWFQQKPGKAPKSLIYGASSLQSGVPSKFSGSGSGTDFTLTISSLQPEDFATYYCQQYSSYPFTFGPGTKVDIK | 0.000179
H2M1242N (antibody, mouse IgG2, V domains shown, chimeric, human variable domains with mouse IgG2 Fc (prefix H2M)) VH: EVQLVESGGGLVRPGGSLRLSCAASGFTFTSYAMNWVRQAPGKGLEWVSSISSYSSYIYIADSVKGRFTLSRDNAKNSLYLQMHSLRPEDTAVYFCAREGYSAYSYFDFWGRGTLVTVSS VL: DIQMTQSPSTLSASVGDRVTITCRASQSVISWLAWYQQKPGKAPKLLIHRASSLESGVPSRFSGSGSGTEFTLTISGLQPDDFATYYCQQYNTYFPTFGQGTKVEVK | 0.000122

Field: next binder
Lab note: H4H2597B (antibody, human IgG4, V domains shown, human IgG4 Fc (prefix H4H)) VH: EVQLVESGGGLVQPGGSLRLSCAVSGFTFSNYAMNWVRQAPGKGLEWVSVISDSGRSTYYADSVKGRFTISRDNSKNTLYLQMNSLRAEDTAVYFCAKRYNWNLHYFDYWGQGTTVTVSS VL: EIVLTQSPDFQSVTPKEKVTITCRASQSIGGSLHWYQQKPDQSPKLLIKYASQSFSGVPSRFSGSGSGTDFTLTINSLEAEDAATYYCLQSSSLRTFGQGTKVEIKR gave koff of 0.000558
